tested on: MCF7 breast; assay: NCI tumour cell line growth inhibition, 48 h
Attribute: TGI

- MOLECULE: "O=C(Nc1ccncc1)C(=O)c1cn(Cc2ccc(Cl)cc2)c2ccccc12"
  TGI: "> 100 µM"
- MOLECULE: "O=CN/C=C/c1cccc(O)c1"
  TGI: "> 68.4 µM"
- MOLECULE: "COc1cccc2c1C(=O)c1c(O)c3c(c(O)c1C2=O)CC(O)(C(O)CO)CC3OC1CC(N2CCOCC2)C(O)C(C)O1 (stereo unspecified)"
  TGI: "0.0895 µM"
- MOLECULE: "CN(C)CCN(C)c1ccc2c(=O)n(CCN(C)C)c(=O)n3c4ccccc4c(=O)c1c23"
  TGI: "11.3 µM"
- MOLECULE: "C=C1/C(=C\\C=C2/CCC[C@]3(C)[C@@H]([C@H](C)CCCC(C)(C)O)CC[C@@H]23)C[C@@H](OC(=O)CBr)C[C@@H]1O"
  TGI: "5.74 µM"
- MOLECULE: "O=c1c2nc3ccccc3c(=O)n2ncn1-c1ccccc1Cl"
  TGI: "> 100 µM"
- MOLECULE: "CC(C)=CCC/C(=C/CC/C(=C\\CCc1ccoc1)C(=O)O)C(=O)O"
  TGI: "> 100 µM"
- MOLECULE: "COc1ccc(C(=O)c2sc(Nc3ccc(Cl)cc3)nc2N)cc1"
  TGI: "> 100 µM"
- MOLECULE: "O=C(/C=C/c1ccccc1)NNC(=O)c1c(Cl)c(Cl)c(Cl)c(Cl)c1-c1nc2ccccc2[nH]1"
  TGI: "> 100 µM"
- MOLECULE: "COc1ccc(C2CC(C)(O)Oc3cc4c(cc32)OCO4)cc1 (stereo unspecified)"
  TGI: "> 100 µM"
- MOLECULE: "Cc1ccccc1C(=O)N/N=C/c1ccc(Sc2nccn2C)c([N+](=O)[O-])c1"
  TGI: "> 100 µM"

---

test system: UO-31 renal; experiment: NCI tumour cell line growth inhibition, 48 h
Attribute: TGI
PROPERTY LABEL: TGI

- MOLECULE: "CCn1c(SCC(=O)NNC(=S)Nc2ccc([N+](=O)[O-])cc2)nc2ccccc2c1=O"
  PROPERTY LABEL: "TGI"
  TEST VALUE: "> 100 µM"
- MOLECULE: "COc1ccc2c3c1O[C@H]1C(OC)C=CC4C(C2)N(Cc2cccs2)CCC341 (some centres undefined)"
  PROPERTY LABEL: "TGI"
  TEST VALUE: "> 100 µM"
- MOLECULE: "CCCN(CCCc1ccccc1)CCc1ccc2[nH]c(=S)[nH]c2c1"
  PROPERTY LABEL: "TGI"
  TEST VALUE: "51.4 µM"
- MOLECULE: "O=C(CCc1ccc(O)c(O)c1)NCCc1cc(O)cc(O)c1"
  PROPERTY LABEL: "TGI"
  TEST VALUE: "> 100 µM"

---

system: LOX IMVI melanoma; assay: NCI tumour cell line growth inhibition, 48 h
Attribute: TGI
PROPERTY LABEL: TGI

- COMPOUND: "N#Cc1c(-c2ccc([N+](=O)[O-])cc2)c(C#N)c(=O)n(NS(=O)(=O)c2ccccc2)c1-c1ccccc1"
  SYSTEM: "LOX IMVI melanoma"
  PROPERTY LABEL: "TGI"
  TEST VALUE: "> 100 µM"
- COMPOUND: "COc1c(O)cc2oc(-c3ccc(O)cc3)cc(=O)c2c1O"
  SYSTEM: "LOX IMVI melanoma"
  PROPERTY LABEL: "TGI"
  TEST VALUE: "> 100 µM"
- COMPOUND: "c1cc2n(n1)CCN2"
  SYSTEM: "LOX IMVI melanoma"
  PROPERTY LABEL: "TGI"
  TEST VALUE: "7690 µM"
- COMPOUND: "C=CCC(N(C)C(=O)[C@H](Cc1ccccc1)NC(=O)OCc1ccccc1)P(=O)(Oc1ccccc1)Oc1ccccc1 (stereo not given in full)"
  SYSTEM: "LOX IMVI melanoma"
  PROPERTY LABEL: "TGI"
  TEST VALUE: "> 100 µM"
- COMPOUND: "COc1cc(CO)c(CC(=O)NCCCc2ccccc2)cc1OC"
  SYSTEM: "LOX IMVI melanoma"
  PROPERTY LABEL: "TGI"
  TEST VALUE: "> 100 µM"
- COMPOUND: "COc1cc([C@@H]2c3cc4c(cc3[C@@H](OC(=O)c3ccc(N)cc3)C3COC(=O)[C@@H]32)OCO4)cc(OC)c1O (stereo not given in full)"
  SYSTEM: "LOX IMVI melanoma"
  PROPERTY LABEL: "TGI"
  TEST VALUE: "50.7 µM"
- COMPOUND: "CC(=O)OCC1OC(c2nc3ccccc3s2)=CC(OC(C)=O)C1OC(C)=O (stereo not given)"
  SYSTEM: "LOX IMVI melanoma"
  PROPERTY LABEL: "TGI"
  TEST VALUE: "> 100 µM"
- COMPOUND: "CCOC(=O)Cn1c(=O)c2nc(SC)sc2n(CC)c1=S"
  SYSTEM: "LOX IMVI melanoma"
  PROPERTY LABEL: "TGI"
  TEST VALUE: "> 100 µM"
- COMPOUND: "O=S(=O)(Nc1ccc(Br)c(Cl)c1)c1ccc(-c2cnc(C3CC3)o2)cc1"
  SYSTEM: "LOX IMVI melanoma"
  PROPERTY LABEL: "TGI"
  TEST VALUE: "16.2 µM"
- COMPOUND: "CN(C)CC(CC1=C(CC(CN(C)C)N(C)C)CCC1)N(C)C (stereo not given)"
  SYSTEM: "LOX IMVI melanoma"
  PROPERTY LABEL: "TGI"
  TEST VALUE: "> 100 µM"
